EXPERIMENTAL_PARAMETERS: [M+H]+; instrument: TW
PROPERTY_LABEL: collision cross section (N2) (Å²)
Give a bare numeral; the unit Å² is implied.

// field: collision cross section (N2); key: CC(C)(C)NCC(O)c1cc(Cl)c(N)c(Br)c1 (configuration not stated) [Bromchlorbuterol] ; value = 165.2

// field: collision cross section (N2); key: CC(C(=O)O)c1cccc(C(=O)c2ccccc2)c1 (configuration not stated) [Ketoprofen] ; value = 155.4

// field: collision cross section (N2); key: Ic2ccc1\N=C(\OCCC)N(C(=O)c1c2)CCC [Proquinazid] ; value = 169.35

// field: collision cross section (N2); key: Nc1ccc(S(=O)(=O)c2ccc(N)cc2)cc1 [Dapsone] ; value = 149.9

// field: collision cross section (N2); key: CCC(C)(CC)c1cc(NC(=O)c2c(OC)cccc2OC)on1 [Isoxaben] ; value = 184.93

// field: collision cross section (N2); key: C[C@]12C=CC3=C4CCC(=O)C=C4CC[C@H]3[C@@H]1CC[C@@H]2O [17B-Trenbolone] ; value = 163.3

// field: collision cross section (N2); key: CCC[C@@H]1C[C@@H](C(=O)N[C@@H]([C@H]2O[C@H](SC)[C@H](O)[C@@H](O)[C@H]2O)[C@@H](C)O)N(C)C1 [Lincomycin] ; value = 201.8

// field: collision cross section (N2); key: COP(=O)(OC)C(O)C(Cl)(Cl)Cl (configuration not stated) [Trichlorfon] ; value = 136.12

// field: collision cross section (N2); key: Nc1ccc(S(=O)(=O)Nc2ccc(Cl)nn2)cc1 [Sulfachloropyridazine] ; value = 156.9

// field: collision cross section (N2); key: CCOCCOC(=O)C(C)Oc1ccc(Oc2ncc(C(F)(F)F)cc2Cl)cc1 (configuration not stated) [Haloxyfop-2-ethoxyethyl] ; value = 193.53

// field: collision cross section (N2); key: CCOC(=O)OC1=C(c2cc(C)ccc2C)C(=O)NC12CCC(OC)CC2 (configuration not stated) [Spirotetramat] ; value = 189.99

// field: collision cross section (N2); key: CCC(C)(C)NCC(O)c1cc(Cl)c(N)c(Cl)c1 (configuration not stated) [Clenpenterol] ; value = 165

// field: collision cross section (N2); key: C[C@]12CC[C@H]3[C@@H](CCC4=CC(=O)CC[C@H]43)[C@@H]1CC[C@H]2O [17a-Nortestosterone] ; value = 165.7

// field: collision cross section (N2); key: C[C@H](NCCc1ccc(O)cc1)[C@H](O)c1ccc(O)cc1 [Ritodrine] ; value = 165.8

// field: collision cross section (N2); key: Cc1ncc([N+](=O)[O-])n1C [Dimetridazole] ; value = 116.4

// field: collision cross section (N2); key: O=C(NC(=O)c1c(F)cccc1F)Nc1cc(Cl)c(OC(F)(F)C(F)F)c(Cl)c1 [Hexaflumuron] ; value = 188.22

// field: collision cross section (N2); key: O=C(NC(=O)c1ccccc1Cl)Nc1ccc(OC(F)(F)F)cc1 [Triflumuron] ; value = 169.88

// field: collision cross section (N2); key: CC(Cc1ccc(C(C)(C)C)cc1)CN1CCCCC1 (configuration not stated) [Fenpropidin] ; value = 166.39

// field: collision cross section (N2); key: CCCCOC(=O)[C@@H](C)Oc1ccc(Oc2ccc(C(F)(F)F)cn2)cc1 [Fluazafop-P-butyl] ; value = 194.8

// field: collision cross section (N2); key: Cc1cnc(/N=C(\O)C2=C(O)c3ccccc3S(=O)(=O)N2C)s1 [Meloxicam] ; value = 174.9

// field: collision cross section (N2); key: COc1nc(C)nc(NC(=O)NS(=O)(=O)c2ccccc2Cl)n1 [Chlorsulfuron] ; value = 175.29

// field: collision cross section (N2); key: CC12C=CC3=C4CCC(=O)C=C4CCC3C1CCC2O (configuration not stated) [17a-Trenbolone] ; value = 163.3

// field: collision cross section (N2); key: C=C(C)C1Cc2c(ccc3c2OC2COc4cc(OC)c(OC)cc4C2C3=O)O1 (configuration not stated) [Rotenone] ; value = 195.01

// field: collision cross section (N2); key: CC(C)NCC(O)c1ccc(N)c(C#N)c1 (configuration not stated) [Cimaterol] ; value = 155.4

// field: collision cross section (N2); key: CC(C)c1ccc(NC(=O)N(C)C)cc1 [Isoproturon] ; value = 150.75

// field: collision cross section (N2); key: CN(C)[C@@H]1C(O)=C(C(N)=O)C(=O)[C@@]2(O)C(O)=C3C(=O)c4c(O)cccc4[C@@](C)(O)[C@H]3C[C@@H]12 [Tetracycline] ; value = 197.3

// field: collision cross section (N2); key: Cc1ccsc1/C=C/C1=NCCCN1C [Morantel] ; value = 149.7

// field: collision cross section (N2); key: Cc1cc(C2CC2)nc(Nc2ccccc2)n1 [Cyprodinil] ; value = 152.07

// field: collision cross section (N2); key: Nc1nc(N)nc(NC2CC2)n1 [Cyromazine] ; value = 133.23

// field: collision cross section (N2); key: C#CCOc1ccc(CCNC(=O)C(OCC#C)c2ccc(Cl)cc2)cc1OC (configuration not stated) [Mandipropamid] ; value = 195.15

// field: collision cross section (N2); key: Cc1cc(C)nc(Nc2ccccc2)n1 [Pyrimethanil] ; value = 142.95

// field: collision cross section (N2); key: CC[C@H]1OC(=O)C[C@@H](O)[C@H](C)[C@@H](O[C@@H]2O[C@H](C)[C@@H](O[C@H]3C[C@@](C)(O)[C@@H](O)[C@H](C)O3)[C@H](N(C)C)[C@H]2O)[C@@H](CC=O)C[C@@H](C)C(=O)/C=C/C(C)=C/[C@@H]1CO[C@@H]1O[C@H](C)[C@@H](O)[C@@H](OC)[C@H]1OC [Tylosine] ; value = 332.4

// field: collision cross section (N2); key: CC(C)N(C(=O)CCl)c1ccccc1 [Propachlor] ; value = 142.07

// field: collision cross section (N2); key: Cc1nnc(NS(=O)(=O)c2ccc(N)cc2)s1 [Sulfamethizole] ; value = 152.2

// field: collision cross section (N2); key: COc1ncnc(NS(=O)(=O)c2ccc(N)cc2)c1OC [Sulfadoxine] ; value = 166.6

// field: collision cross section (N2); key: Cc1nn(-c2cc(NS(C)(=O)=O)c(Cl)cc2Cl)c(=O)n1C(F)F [Sulfentrazone] ; value = 173.63

// field: collision cross section (N2); key: CC1COC(Cn2cncn2)(c2ccc(Oc3ccc(Cl)cc3)cc2Cl)O1 (configuration not stated) [Difenoconazole] ; value = 198.48
